Data origin, for the record: patent US9181236B2

Biological target: soluble human BACE1 catalytic domain (Homo sapiens (Human))
Experiment: BACE1 HTRF FRET Assay
Type: biochemical
Conditions: read-out: BACE1 % Inh. at 10 μM
Ranges used to classify inhibition at 10 µM: bucket 1 = under 30%, bucket 2 = from 30% up to 50%, bucket 3 = 50% and over

Observe how each entry below is paired with its result.
molecule="C[C@@]1(c2sc(C#CCc3cc(F)c(F)c(F)c3)cc2Cl)CS(=O)(=O)C2(CCC2)C(=N)N1 [Example 78]" tested_target="soluble human BACE1 catalytic domain (Homo sapiens (Human))" classification="bucket 1"
molecule="Cc1ncc(NC(=O)c2cc(Cl)c([C@]3(C)CS(=O)(=O)C4(CCCCC4)C(=N)N3)s2)cn1 [Example 80h]" tested_target="soluble human BACE1 catalytic domain (Homo sapiens (Human))" classification="bucket 2"
molecule=C[C@@]1(c2cc(N)ccc2F)CS(=O)(=O)[C@]2(CCOC2)C(=N)N1 tested_target="soluble human BACE1 catalytic domain (Homo sapiens (Human))" classification="bucket 2"
molecule="C[C@@]1(c2cc(NC(=O)c3ccc(F)cc3F)ccc2F)CS(=O)(=O)[C@]2(CCOC2)C(=N)N1 [Example 81v]" tested_target="soluble human BACE1 catalytic domain (Homo sapiens (Human))" classification="bucket 3"
molecule="CC(C)C(F)(F)c1ccc(C(=O)Nc2ccc(F)c([C@]3(C)CS(=O)(=O)[C@]4(CCOC4)C(=N)N3)c2)nc1 [Example 81ac]" tested_target="soluble human BACE1 catalytic domain (Homo sapiens (Human))" classification="bucket 2"

Input line: For this molecule, which bin applies? C[C@@]1(c2cc(NC(=O)C3CCOCC3)ccc2F)CS(=O)(=O)[C@]2(CCOC2)C(=N)N1 [Example 81q]
Output line: bucket 1

Input line: Pick a category. Item: `C[C@@]1(c2cc(N)ccc2F)CS(=O)(=O)C2(CCC2)C(=N)N1`
Output line: bucket 3

Input line: Which inhibition at 10 µM band matches `C[C@@]1(c2cc(N)ccc2F)CS(=O)(=O)[C@@]2(CCOC2)C(=N)N1` ?
Output line: bucket 2

----------
Recorded pKi for the following molecules
Target: soluble human BACE1 catalytic domain (Homo sapiens (Human))
Experiment: BACE1 HTRF FRET Assay
Type: biochemical
Conditions: Ki calculated from IC50 using the Cheng-Prusoff equation
The read-out pKi is expressed as -log10 of concentration in moles per litre.

// known answers, use as guide
molecule="COc1cccc2cc(-c3cc(Cl)c([C@]4(C)CS(=O)(=O)[C@]5(CCOC5)C(=N)N4)s3)[nH]c12 [Example 62g]" tested_target="soluble human BACE1 catalytic domain (Homo sapiens (Human))" observed_result=8.20
molecule="C[C@@]1(c2sc(-c3cccc(-c4nnco4)c3)cc2Cl)CS(=O)(=O)[C@@]2(CCOC2)C(=N)N1 [Example 63g]" tested_target="soluble human BACE1 catalytic domain (Homo sapiens (Human))" observed_result=7.69
molecule="C[C@@]1(c2sc(C(=O)NCc3cnsn3)cc2Cl)CS(=O)(=O)C2(CCCCC2)C(=N)N1 [Example 80a]" tested_target="soluble human BACE1 catalytic domain (Homo sapiens (Human))" observed_result=6.84
molecule="C[C@@]1(c2cc(NC(=O)c3cn4ncsc4n3)ccc2F)CS(=O)(=O)C2(CCCC2)C(=N)N1 [Example 19]" tested_target="soluble human BACE1 catalytic domain (Homo sapiens (Human))" observed_result=7.74
molecule="C[C@@]1(c2sc(-c3ccnc(-c4ccoc4)c3)cc2Cl)CS(=O)(=O)[C@@]2(CCOC2)C(=N)N1 [Example 63l]" tested_target="soluble human BACE1 catalytic domain (Homo sapiens (Human))" observed_result=6.17

Input line: I'd like to know its pKi. The molecule in question is C[C@@]1(c2sc(C(=O)Nc3cccc(F)n3)cc2Cl)CS(=O)(=O)C2(CC2)C(=N)N1 [Example 79c]
Output line: 6.64

Input line: Report pKi for C[C@@]1(c2cc(NC(=O)c3ccc(C(F)(F)F)cn3)ccc2F)CS(=O)(=O)C2(CCOCC2)C(=N)N1 [Example 34] please.
Output line: 7.70

Input line: Can you look up the measured pKi of C[C@@]1(c2cc(NC(=O)c3ccc(Cl)cn3)ccc2F)CS(=O)(=O)[C@@]2(CCOC2)C(=N)N1 [Example 63c] for me?
Output line: 8.23

Input line: # get_value(readout='pKi', item= COc1cnc(C(=O)Nc2ccc(F)c([C@]3(C)CS(=O)(=O)C4(CCCC4)C(=N)N3)c2)cn1 [Example 17] )
Output line: 8.44

Input line: pKi for C[C@@]1(c2cc(NC(=O)C3CCC3(F)F)ccc2F)CS(=O)(=O)[C@]2(CCOC2)C(=N)N1 (stereo partly drawn) [Example 81o] ?
Output line: 5.43

Input line: So what does the record say about pKi for C[C@@]1(c2sc(-c3ccnc(-c4ccccc4)c3)cc2Cl)CS(=O)(=O)[C@@]2(CCOC2)C(=N)N1 [Example 63k] ?
Output line: 6.07

Input line: Which pKi value is on record for Cc1cc(C(=O)Nc2ccc(F)c([C@]3(C)CS(=O)(=O)[C@]4(CCOC4)C(=N)N3)c2)no1 [Example 81af] ?
Output line: 5.87

Input line: Can you look up the measured pKi of C[C@@]1(c2sc(-c3ccnc(-c4cccs4)c3)cc2Cl)CS(=O)(=O)[C@@]2(CCOC2)C(=N)N1 [Example 63m] for me?
Output line: 6.01

Input line: Please give the measured pKi for this molecule: C[C@@]1(c2cc(-c3cccc(C#N)c3)ccc2F)CS(=O)(=O)C2(CCCC2)C(=N)N1 [Example 36]
Output line: 5.89

Input line: Recorded pKi for C[C@@]1(c2cc(NC(=O)c3ccc(OC(F)(F)F)cn3)ccc2F)CS(=O)(=O)[C@]2(CCOC2)C(=N)N1 [Example 81aa] , please?
Output line: 6.52

----------
Biological target: soluble human BACE1 catalytic domain (Homo sapiens (Human), UniProt P56817)
Sequence (P56817 75-416): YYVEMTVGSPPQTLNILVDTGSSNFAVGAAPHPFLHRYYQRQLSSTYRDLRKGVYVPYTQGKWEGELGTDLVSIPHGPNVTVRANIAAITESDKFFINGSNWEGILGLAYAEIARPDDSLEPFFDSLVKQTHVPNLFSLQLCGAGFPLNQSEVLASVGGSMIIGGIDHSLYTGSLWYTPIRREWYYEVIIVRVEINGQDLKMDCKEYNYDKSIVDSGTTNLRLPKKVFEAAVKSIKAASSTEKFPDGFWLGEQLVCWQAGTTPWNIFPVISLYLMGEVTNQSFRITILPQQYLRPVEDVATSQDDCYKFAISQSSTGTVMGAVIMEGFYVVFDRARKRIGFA
Assay: BACE1 HTRF FRET Assay
Type: biochemical
Conditions: Ki calculated from IC50 using the Cheng-Prusoff equation
Parameter: Ki (nM)
Write it as a number; the unit nM goes unstated.

Sample answers from the record:
molecule="CC(C)(C)C#Cc1cc(Cl)c([C@]2(C)CS(=O)(=O)C3(CCC3)C(=N)N2)s1 [Example 77a]" observed_result=165
molecule="C[C@@]1(c2sc(-c3cncc(C#N)c3)cc2Cl)CS(=O)(=O)[C@]2(CCOC2)C(=N)N1 [Example 62f]" observed_result=67.1
molecule="C[C@@]1(c2cc(NC(=O)c3ccc(Cl)cc3)ccc2F)CS(=O)(=O)[C@]2(CCOC2)C(=N)N1 [Example 81m]" observed_result=82

Continue with the next molecule.
Input line: Give its Ki value. Item: `C[C@@]1(c2sc(Br)cc2Cl)CS(=O)(=O)C2(CCCC2)C(=N)N1`
Output line: 447

----------
Target: soluble human BACE1 catalytic domain (Homo sapiens (Human), UniProt P56817)
Parameter: Ki (nM)
Note: unit nM is implicit; provide only the numeric part.

Worked cases, Ki given:
compound="Cc1cccc(NC(=O)c2cc(Cl)c([C@]3(C)CS(=O)(=O)C4(CC4)C(=N)N3)s2)n1 [Example 79d]" tested_target="soluble human BACE1 catalytic domain (Homo sapiens (Human), UniProt P56817)" observed_result=30
compound="C[C@@]1(c2cc(NC(=O)c3ccc(F)cn3)ccc2F)CS(=O)(=O)[C@]2(CCOC2)C(=N)N1 [Example 62b]" tested_target="soluble human BACE1 catalytic domain (Homo sapiens (Human), UniProt P56817)" observed_result=24
compound="C[C@@]1(c2cc(NC(=O)C3CCO3)ccc2F)CS(=O)(=O)[C@]2(CCOC2)C(=N)N1 (stereo partly shown) [Example 81d]" tested_target="soluble human BACE1 catalytic domain (Homo sapiens (Human), UniProt P56817)" observed_result=488

Shifting focus to the compound that follows.
Input line: Tell me reported Ki for COc1cnc(C(=O)Nc2ccc(F)c([C@]3(C)CS(=O)(=O)[C@@]4(CCOC4)C(=N)N3)c2)cn1 [Example 63] , tested with soluble human BACE1 catalytic domain (Homo sapiens (Human), UniProt P56817).
Output line: 41

----------
Reported Ki values, soluble human BACE1 catalytic domain (Homo sapiens (Human)).
Please don't drop the unit; write it after the number.

Field: example entries. Status: answers known.
compound="C[C@@]1(c2sc(-c3ccnc(-c4cccs4)c3)cc2Cl)CS(=O)(=O)[C@]2(CCOC2)C(=N)N1 [Example 62k]" parameter=Ki observed_result="305 nM"
compound="CC(F)(F)C(=O)Nc1ccc(F)c([C@]2(C)CS(=O)(=O)[C@]3(CCOC3)C(=N)N2)c1 [Example 81ad]" parameter=Ki observed_result="313 nM"
compound="C[C@@]1(c2sc(-c3ccnc(-c4ccccc4)c3)cc2Cl)CS(=O)(=O)[C@]2(CCOC2)C(=N)N1 [Example 62n]" parameter=Ki observed_result="313 nM"
compound="CCOCC(=O)Nc1ccc(F)c([C@]2(C)CS(=O)(=O)[C@]3(CCOC3)C(=N)N2)c1 [Example 81a]" parameter=Ki observed_result="4150 nM"
compound="C[C@@]1(c2sc(-c3cccc(-c4nnco4)c3)cc2Cl)CS(=O)(=O)C2(CCC2)C(=N)N1 [Example 61a]" parameter=Ki observed_result="18.6 nM"
compound="C[C@@]1(c2cc(NC(=O)CC3CC3)ccc2F)CS(=O)(=O)[C@]2(CCOC2)C(=N)N1 [Example 81g]" parameter=Ki observed_result="2960 nM"
compound="C[C@@]1(c2sc(C(=O)NCc3ccc(F)cc3)cc2Cl)CS(=O)(=O)C2(CCCCC2)C(=N)N1 [Example 80e]" parameter=Ki observed_result="588 nM"

Now for the compound whose Ki we want.
Input line: GET /values?readout=Ki&system=soluble human BACE1 catalytic domain (Homo sapiens (Human))&item= `C[C@@]1(c2sc(Br)cc2Cl)CS(=O)(=O)C2(CCOCC2)C(=N)N1`
Output line: 2370 nM
